Hi there, I'd appreciate the recorded TGI for every entry that follows.
system: SK-MEL-5 melanoma; assay: NCI tumour cell line growth inhibition, 48 h

Nc1nc(OCc2ccccc2)nc2[nH]ncc12 = 28.3 µM
C=CCc1ccc(O)c(-c2cc(C3Oc4c(-c5cc(CC=C)ccc5O)cc(O)cc4[C@@H]3CO)ccc2O)c1 (stereo not given in full) = 65 µM
COC(=O)[C@@H]1CCCN1C(=O)[C@@H]1CCCN1C(=O)[C@@H](Cc1c[nH]c2ccccc12)NC(=S)Nc1cc(C(F)(F)F)cc(C(F)(F)F)c1 = 5.52 µM
CCOC(=O)c1cnn(-c2ccnc3c(C(F)(F)F)cccc23)c1N = > 100 µM

Kindly review the next compound as well.
In: Answer with the recorded TGI for the compound listed here: O=C1C(=O)N(C2CCCCC2)C(=S)N1C1CCCCC1
Out: > 100 µM

// data source = PubChem BioAssay (NCI)
